Target: SBD1 within the tandem SBD1-2 (Lactococcus lactis, UniProt Q9CES5)
Sequence (Q9CES5 entry or part of it): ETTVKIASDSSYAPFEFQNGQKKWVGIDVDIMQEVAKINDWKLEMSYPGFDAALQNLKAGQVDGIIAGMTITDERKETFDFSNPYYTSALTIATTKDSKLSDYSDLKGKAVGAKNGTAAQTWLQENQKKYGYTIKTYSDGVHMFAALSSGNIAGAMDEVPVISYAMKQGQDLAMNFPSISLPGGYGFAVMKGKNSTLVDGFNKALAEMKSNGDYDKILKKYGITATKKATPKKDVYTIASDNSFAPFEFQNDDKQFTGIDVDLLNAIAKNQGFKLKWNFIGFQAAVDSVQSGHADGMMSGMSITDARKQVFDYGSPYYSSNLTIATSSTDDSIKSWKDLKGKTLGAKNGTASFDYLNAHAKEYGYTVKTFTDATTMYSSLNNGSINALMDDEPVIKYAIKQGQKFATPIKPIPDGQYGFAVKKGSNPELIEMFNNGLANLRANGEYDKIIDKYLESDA
Assay: Isothermal titration calorimetry, SBD1 site of tandem SBD1-2
Details: SBD1 within tandem SBD1-2; ITC, 25°C, pH 6.0
readout: Kd (nM)
Number in nM, nothing else.

compound NC(=O)C[C@H](N)C(=O)O , Kd observed: 400

---

Target: SBD2 within the tandem SBD1-2 (Lactococcus lactis, UniProt Q9CES5)
Assay: Isothermal titration calorimetry, SBD2 site of tandem SBD1-2
Format: binding
Conditions: SBD2 within tandem SBD1-2, no asparagine; ITC, 25°C, pH 6.0
readout: Kd (nM)
Kindly answer with a numeric value in nM, unit omitted.

Recorded result, NC(=O)CC[C@H](N)C(=O)O , Kd: 600
